Exercise: for every item that follows, state its recorded pIC50.
subject-of-test: purified, recombinant human DPIV (Homo sapiens)
Sequence (P27487 whole entry): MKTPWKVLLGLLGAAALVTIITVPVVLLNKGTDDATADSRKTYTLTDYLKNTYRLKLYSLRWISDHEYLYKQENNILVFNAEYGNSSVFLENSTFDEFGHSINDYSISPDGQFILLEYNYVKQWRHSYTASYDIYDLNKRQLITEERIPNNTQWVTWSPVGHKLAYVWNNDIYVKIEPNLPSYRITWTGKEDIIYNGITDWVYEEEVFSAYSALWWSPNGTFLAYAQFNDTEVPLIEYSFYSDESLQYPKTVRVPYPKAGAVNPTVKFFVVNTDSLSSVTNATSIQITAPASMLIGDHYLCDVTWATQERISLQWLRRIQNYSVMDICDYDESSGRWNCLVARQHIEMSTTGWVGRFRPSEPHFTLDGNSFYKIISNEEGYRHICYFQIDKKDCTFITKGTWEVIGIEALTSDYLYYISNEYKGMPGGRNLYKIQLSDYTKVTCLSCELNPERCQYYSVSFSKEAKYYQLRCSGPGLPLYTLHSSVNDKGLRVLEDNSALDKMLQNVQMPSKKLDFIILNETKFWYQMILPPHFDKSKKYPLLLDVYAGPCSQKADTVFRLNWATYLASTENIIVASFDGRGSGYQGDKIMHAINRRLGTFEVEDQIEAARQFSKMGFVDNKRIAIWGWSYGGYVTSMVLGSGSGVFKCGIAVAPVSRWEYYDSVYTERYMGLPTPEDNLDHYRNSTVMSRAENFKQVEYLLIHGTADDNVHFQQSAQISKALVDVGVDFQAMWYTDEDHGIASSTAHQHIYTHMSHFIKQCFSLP
test-method-notes: Measurement of DPIV activity (fluorogenic substrate (Ala-Pro)2-R110)
Answers are plain numbers, as −log10 of the molar value.

>>> meas_value("CC(C)(CNC(=O)CC(N)Cc1cc(F)ccc1F)CNC(=O)C(O)C(N)Cc1ccc(-c2cncnc2)cc1 (stereo not drawn) [drawing 77]")
7.00
>>> meas_value("NC(CC(=O)NCCNC(=O)CC(O)C(N)Cc1ccccc1)Cc1ccccc1 (stereo not drawn) [drawing 18]")
6.00
>>> meas_value("NC(CC(=O)NCC1(CNC(=O)C(O)C(N)Cc2ccccc2)CCC1)Cc1ccccc1 (stereo not drawn) [drawing 29]")
5.78
>>> meas_value("NC(CC(=O)NCC1(CNC(=O)C(O)C(N)Cc2ccccc2)CCCCC1)Cc1cc(F)ccc1F (stereo not drawn) [drawing 67]")
6.72
>>> meas_value("CC(C)(CNC(=O)CC(N)Cc1cc(F)ccc1F)CNC(=O)C(OC(=O)CCCc1ccccc1)C(N)Cc1ccccc1 (stereo not drawn) [drawing 49]")
6.52
>>> meas_value("CC(C)(CNCC(N)Cc1cc(F)ccc1F)CNC(=O)C(O)C(N)Cc1ccccc1 (stereo not drawn) [drawing 70]")
4.52
>>> meas_value("NC(CC(=O)NCCCCNC(=O)C(O)C(N)Cc1ccccc1)C(=O)N1CCSC1 (stereo not drawn) [drawing 42]")
5.77
>>> meas_value("NC(CC(=O)NC(CCCNC(=O)C(O)C(N)Cc1ccccc1)C(=O)O)Cc1cc(F)ccc1F (stereo not drawn) [drawing 35]")
6.70
>>> meas_value("CN(CCCNC(=O)CC(N)Cc1cc(F)ccc1F)C(=O)C(O)C(N)Cc1ccccc1 (stereo not drawn) [drawing 40]")
6.70
>>> meas_value("CC(C(=O)NCC(C)(C)CNC(=O)C(O)C(N)Cc1ccccc1)C(N)Cc1cc(F)ccc1F (stereo not drawn) [drawing 60]")
6.35

I have 3 molecules here; please give me pIC50 for each one.
1. CC(C)(CNC(=O)CC(N)Cc1ccccc1)CNC(=O)C(O)C(N)Cc1ccccc1 (stereo not drawn) [drawing 21]
2. CCCCCCCC(=O)OC(C(=O)N(C)CCCNC(=O)CC(N)Cc1cc(F)ccc1F)C(N)Cc1ccccc1 (stereo not drawn) [drawing 44]
3. NC(CC(=O)NCCNC(=O)C(O)C(N)Cc1ccccc1)Cc1cc(F)ccc1F (stereo not drawn) [drawing 15]

1. 5.70
2. 7.70
3. 6.80

Values compiled from patent US20120258960A1.
